System: Radical scavenging activity
Assay: Antioxidant activity assessed as DPPH radical scavenging activity at 300 ug/mL after 30 min
Assay type: functional
Hi there, I'd appreciate the recorded Activity for every entry that follows.
Give the quantity in %, number only.

Given the entry c1ccc(-c2cccc(SC34CC5CC(CC(C5)C3)C4)n2)cc1 , report its measured Activity. 7.37

Given the entry c1ccc(-c2ccc(SC34CC5CC(CC(C5)C3)C4)cn2)cc1 , report its measured Activity. 8.77

Given the entry c1ccc(-c2cc(SC34CC5CC(CC(C5)C3)C4)ccn2)cc1 , report its measured Activity. 30.2

Given the entry Cc1cncc(SC23CC4CC(CC(C4)C2)C3)c1 , report its measured Activity. 7.96

Given the entry c1ccc(-c2ccc(SC34CC5CC(CC(C5)C3)C4)nc2)cc1 , report its measured Activity. 10.6

Given the entry Cc1cccnc1SC12CC3CC(CC(C3)C1)C2 , report its measured Activity. 19.6

Given the entry Cc1ccc(SC23CC4CC(CC(C4)C2)C3)nc1 , report its measured Activity. 7.69

Given the entry c1ccc(-c2ccnc(SC34CC5CC(CC(C5)C3)C4)c2)cc1 , report its measured Activity. 6.95

Given the entry c1ccc(-c2cccnc2SC23CC4CC(CC(C4)C2)C3)cc1 , report its measured Activity. 11.1

Given the entry c1ccc(-c2ccncc2SC23CC4CC(CC(C4)C2)C3)cc1 , report its measured Activity. 12.2

----------
Tested on: HepG2
Test: Cytotoxicity against Homo sapiens (human) HepG2 cells after 3 days by MTT assay
Assay type: functional, cell-based
Details: Homo sapiens, HepG2, 72 h; read-out: IC50
measured-endpoint: IC50 (µg/mL)
Give the quantity in µg/mL, number only.

Form: Entry = c1ccc(-c2cccc(SC34CC5CC(CC(C5)C3)C4)n2)cc1 | System = HepG2 | IC50 = ____ 48.5

Form: Entry = COc1cc([C@@H]2c3cc4c(cc3[C@@H](O[C@@H]3O[C@@H]5CO[C@@H](C)O[C@H]5[C@H](O)[C@H]3O)[C@H]3COC(=O)[C@H]23)OCO4)cc(OC)c1O [ETOPOSIDE] | System = HepG2 | IC50 = ____ 12

Form: Entry = Cc1cccnc1SC12CC3CC(CC(C3)C1)C2 | System = HepG2 | IC50 = ____ 30

Form: Entry = Cc1cncc(SC23CC4CC(CC(C4)C2)C3)c1 | System = HepG2 | IC50 = ____ 26.5

Form: Entry = c1ccc(-c2ccncc2SC23CC4CC(CC(C4)C2)C3)cc1 | System = HepG2 | IC50 = ____ 21.5

Form: Entry = COc1cccc2c1C(=O)c1c(O)c3c(c(O)c1C2=O)C[C@@](O)(C(=O)CO)C[C@@H]3O[C@H]1C[C@H](N)[C@H](O)[C@H](C)O1 | System = HepG2 | IC50 = ____ 0.23

Form: Entry = c1ccc(-c2ccnc(SC34CC5CC(CC(C5)C3)C4)c2)cc1 | System = HepG2 | IC50 = ____ 46.5
